targetOfAssay: MAPKAP-K3 (Homo sapiens, UniProt Q16644)
Sequence (Q16644 whole entry, species assumed): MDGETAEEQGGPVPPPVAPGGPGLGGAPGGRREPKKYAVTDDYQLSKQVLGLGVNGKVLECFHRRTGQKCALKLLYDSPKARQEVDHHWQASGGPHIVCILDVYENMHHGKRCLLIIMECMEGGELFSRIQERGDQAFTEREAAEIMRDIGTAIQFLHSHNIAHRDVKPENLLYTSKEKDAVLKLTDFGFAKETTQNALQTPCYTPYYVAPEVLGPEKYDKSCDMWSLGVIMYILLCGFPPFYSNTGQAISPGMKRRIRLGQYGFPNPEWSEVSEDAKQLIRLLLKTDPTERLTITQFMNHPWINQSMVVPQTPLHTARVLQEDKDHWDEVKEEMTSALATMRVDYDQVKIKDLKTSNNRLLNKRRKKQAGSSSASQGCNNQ
experimentalDetails: Kinase profiling MAPKAP-K3
Format: biochemical
conditionsUsed: 100 micromolar inhibitor concentration; 100 is no change; read-out: residual kinase activity, MAPKAP-K3
readoutName: remaining activity at 100 µM
Units required after the number.

- CC(=O)Nc1nc2cc(C(F)(F)F)ccc2s1 [Compound 03-73]: 93%
- CC(=O)Nc1nc2ccc(C(F)(F)F)cc2s1 [Compound 01-90]: 101%
- COc1ccc2sc(NC(C)=O)nc2c1 [Compound 03-21]: 97%
- CC(=O)Nc1nc2ccc(C#N)cc2s1 [Compound 01-94]: 101%

Record CC(=O)Nc1nc2ccc(O)cc2s1 [Compound 01-71] . Reported remaining activity at 100 µM: 34%

Entry CC(=O)Nc1nc2cc(F)ccc2s1 [Compound 03-77] , remaining activity at 100 µM reported as 107%
